Target: T1, Mature human CD3e(1-118)_FLAG-chLys_Avi (human)
T1 construct: also called human CD3 epsilon antigen
T1 sequence (chain, as listed by the source limits assumed): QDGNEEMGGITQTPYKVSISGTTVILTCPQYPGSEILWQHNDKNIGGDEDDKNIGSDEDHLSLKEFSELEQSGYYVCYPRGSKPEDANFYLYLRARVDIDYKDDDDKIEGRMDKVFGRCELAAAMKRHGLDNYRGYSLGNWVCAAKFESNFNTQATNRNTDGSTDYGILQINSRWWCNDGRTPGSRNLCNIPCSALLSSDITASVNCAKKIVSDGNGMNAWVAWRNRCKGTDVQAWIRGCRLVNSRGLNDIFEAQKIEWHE
Assay: BLI (Octet HTX); FabCys captured on Fab-specific sensor, CD3e antigen as analyte; 1:1 model
Description: Affinity determination by determining kinetic rate constants was performed on an Octet HTX (FortéBIO, Sartorius AG) instrument as described below. The different Fab-Cys samples diluted in assay buffer (D-PBS, 0.05% (v/v) PS 20, 0.1% (w/v) BSA) were captured onto Fab-specific BLI sensors with a loading level of approx. 0.5 nm. […] The association phase was recorded for 300 s, followed by a dissociation phase of 900 s. […]
# maps each entry to its kon

Binder | Readout unit | kon
MAB-13_h_FabCys (Fab, V domains shown, Tagless disulfide-bridged human FabCys produced in HEK293 cells; also called MAB-13 Fab-Cys) VH: EVQLVESGGGLVQPGGSLRLSCAASGFTFRSHYMTWVRQAPGKGLEWVANIDYEGTRTYYAESVKGRFTISRDNAKNSLYLQMNSLRAEDTAVYYCARGYSAEFAHRSGLDVWGQGTLVTVSS VL: QSVLTQPPSASGTPGQRVTISCSGSSSNIGINYVYWYQQLPGTAPKLLIYRNNQRPSGVPDRFSGSKSGTSASLAISGLRSEDEADYYCAAWDRHSHGAVFGGGTKLTVLG | M⁻¹ s⁻¹ | 705000
MAB-9_h_FabCys (Fab, V domains shown, Tagless disulfide-bridged human FabCys produced in HEK293 cells; also called MAB-9 Fab-Cys) VH: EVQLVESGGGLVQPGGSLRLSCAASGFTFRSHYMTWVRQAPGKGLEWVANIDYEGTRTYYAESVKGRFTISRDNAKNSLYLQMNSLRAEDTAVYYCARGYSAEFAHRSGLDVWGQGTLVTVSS VL: QSVLTQPPSASGTPGQRVTISCSGSSSNIGINYVYWYQQLPGTAPKLLIYRNNIRPSGVPDRFSGSKSGTSASLAISGLRSEDEADYYCAAWDRHSHGAVFGGGTKLTVLG | M⁻¹ s⁻¹ | 724000
MAB-8_h_FabCys (Fab, V domains shown, Tagless disulfide-bridged human FabCys produced in HEK293 cells; also called MAB-8 Fab-Cys) VH: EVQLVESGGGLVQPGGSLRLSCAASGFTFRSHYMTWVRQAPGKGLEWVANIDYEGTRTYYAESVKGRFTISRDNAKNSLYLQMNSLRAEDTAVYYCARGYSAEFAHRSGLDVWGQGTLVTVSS VL: QSVLTQPPSASGTPGQRVTISCSGSSSNIGSNYVYWYQQLPGTAPKLLIYRNNQRPSGVPDRFSGSKSGTSASLAISGLRSEDEADYYCAAWDRHSHGAVFGGGTKLTVLG | M⁻¹ s⁻¹ | 802000
